B1: PHTF1 (parent)
chain: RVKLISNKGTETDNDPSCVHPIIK

Variants of: B1
assay.protocol: protein stability index of a GFP-peptide fusion (GPS, HEK-293T) (PSI 1-6); higher = more stable;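 note: lentivirally expressed fusions sorted by FACS into six bins by GFP to DsRed ratio, PSI derived from sequencing read proportions per bin multiplied by bin number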
condition.notes: c terminus: a fixed tail appended
Reported protein stability index values for the following variants.
// keep it numeric: no unit symbol after the value

• RVKLKSNKGTETDNDPSCVHPIIK [I5K] = 4.01
• RVKLISTKGTETDNDPSCVHPIIK [N7T] = 4
• RVKLISNKGTETDNDPLCVHPIIK [S17L] = 3.93
• RVKLFSNKGTETDNDPSCVHPIIK [I5F] = 4.02
• RVKLISNKGTETDNDKSCVHPIIK [P16K] = 4.06

// below: protein stability index requested for another variant
Return protein stability index (reported value) for this variant: RVKLISNKGTETGNDPSCVHPIIK [D13G]
3.89
